Where do the numbers come from? From PubChem BioAssay (NCI).

- Test system: 786-0 renal
- assayDetails: NCI tumour cell line growth inhibition, 48 h
Consider the following molecules and their measured GI50 readings.

{"columns": ["molecule", "GI50"],
 "data": [
  ["Cc1cccc(-c2[nH]ncc2-c2ccc3ncccc3n2)n1", "11.1 µM"],
  ["COc1cc2nccc(Oc3ccc(NC(=O)NC4CC4)c(Cl)c3)c2cc1C(N)=O", "13.4 µM"],
  ["O=C1/C(=C\\c2ccc(F)cc2)CN(C(=O)c2ccccc2)C/C1=C\\c1ccc(F)cc1", "1.83 µM"],
  ["NS(=O)(=O)OCC1OC(n2cnc3cncnc32)C(O)C1O (stereo not given)", "0.0228 µM"],
  ["COc1ccc(N=Cc2c(O)ccc3c2oc2cc(Cl)c(O)c(Cl)c23)cc1", "19.2 µM"]
]}

###

Consider the following molecules and their measured TGI readings.
- Test system: NCI-H23 lung
- assayDetails: NCI tumour cell line growth inhibition, 48 h

{"columns": ["molecule", "TGI"],
 "data": [
  ["Cc1cc(Cl)cc2c(N=Nc3ccc(S(N)(=O)=O)cc3)c(O)[nH]c12", "> 25 µM"],
  ["COC(=O)CCC(C)[C@H]1CCC2C3C(C[C@H](OC(C)=O)[C@@]21C)[C@@]1(C)CCC2(C[C@H]1C[C@H]3OC(C)=O)OOC1(CCCC1)OO2 (stereo not given in full)", "> 100 µM"],
  ["O=Cc1c2n(c3ccccc13)N[C@@](Cc1ccc(O)cc1)(C(=O)O)C2", "> 100 µM"],
  ["CC(=O)OC1CC2CCN3C(=O)c4cc5c(cc4[C@H](C1OC(C)=O)C23)OCO5 (stereo not given in full)", "> 100 µM"],
  ["O=C(NC(Cl)(C(F)(F)F)C(F)(F)F)c1ccc(F)cc1", "> 100 µM"]
]}

###

- Test system: SK-MEL-28 melanoma
- assayDetails: NCI tumour cell line growth inhibition, 48 h

{"columns": ["compound", "qualifyingSign", "TGI, µM"],
 "data": [
  ["O=C1CC[C@H](N2C(=O)c3cccc4c(Cc5ccc(CN6CCOCC6)cc5)ccc2c34)C(=O)N1", ">", 100],
  ["COc1ccc2c(c1O)-c1cc(O)cc3c1[C@@H](C2)N(C)CC3", "=", 157],
  ["CC(=O)OC(CN1CCN(c2ccccn2)CC1)Cn1sc2nc(C)cc(C)c2c1=O (configuration not stated)", "=", 42.2],
  ["c1ccc2c(CN3CCN(Cc4c[nH]c5ccccc45)CC3)c[nH]c2c1", "=", 36.9],
  ["COc1ccc(C(=O)Nc2ncc(Cc3cccc(Cl)c3)s2)cc1OC", ">", 100],
  ["Oc1ccc2c(c1)CCc1c-2n(CCN2CCOCC2)c2ccc(O)cc12", ">", 100],
  ["c1ccc2c(c1)NCCC(=NC1CCCCC1)N2", ">", 100],
  ["C[n+]1c(/C=C/c2c[nH]c3ccccc23)ccc2ccccc21", "=", 27.3],
  ["O=C(Cn1cc(-c2ccccc2)nn1)NC1CCCCC1", ">", 100],
  ["Cc1sc2[nH]c(=O)oc(=O)c2c1C", ">", 100],
  ["O=C(c1ccccc1)c1ccc(N2C(=O)/C(=C/Cc3ccco3)N=C2c2ccccc2)c(N2C(=O)/C(=C/Cc3ccco3)N=C2c2ccccc2)c1", ">", 100],
  ["COc1cccc(CCC2CCCN(c3cc(C)nc(N)n3)C2)c1 (configuration not stated)", "=", 16],
  ["Cn1cc(C2=C(c3ccccc3[N+](=O)[O-])C(=O)NC2=O)c2ccccc21", "=", 20.1],
  ["CSC1=Nc2c(c(C)c(-c3ccccc3)n2CCCN2CCCCC2)C2=NC(=O)C[C@H](C)N12", "=", 14.9],
  ["c1cnn(C23C4C5C6C4C2C6C53)c1 (configuration not stated)", ">", 100],
  ["Nc1cc(F)ccc1CC(=O)O", ">", 100],
  ["COc1ccc(OC)c(CSc2ccc(OC)c(OC)c2)c1", ">", 100],
  ["NS(=O)(=O)OCC1OC(n2cnc3cncnc32)C(O)C1O (configuration not stated)", "=", 0.185],
  ["COc1ccccc1C1C(Cl)C(=O)N1n1cnc2ccccc2c1=O (configuration not stated)", ">", 100],
  ["O=C(NC(Cl)(C(F)(F)F)C(F)(F)F)c1ccc(F)cc1", ">", 100],
  ["CCOP(=O)(C=C=C1CCC2[C@@H]3CCc4cc(OC)ccc4C3CC[C@]12C)OCC (some centres not stated)", "=", 23.9],
  ["C=CCC(N[C@@H](CO)c1ccccc1)c1cn(Cc2ccccc2Cl)c(=O)n(Cc2ccccc2Cl)c1=O (some centres not stated)", ">", 100]
]}
